pKi: −log10 of the molar value.
The compounds below have reported pKi for UniProtKB P47900.
Sequence (P47900 whole entry): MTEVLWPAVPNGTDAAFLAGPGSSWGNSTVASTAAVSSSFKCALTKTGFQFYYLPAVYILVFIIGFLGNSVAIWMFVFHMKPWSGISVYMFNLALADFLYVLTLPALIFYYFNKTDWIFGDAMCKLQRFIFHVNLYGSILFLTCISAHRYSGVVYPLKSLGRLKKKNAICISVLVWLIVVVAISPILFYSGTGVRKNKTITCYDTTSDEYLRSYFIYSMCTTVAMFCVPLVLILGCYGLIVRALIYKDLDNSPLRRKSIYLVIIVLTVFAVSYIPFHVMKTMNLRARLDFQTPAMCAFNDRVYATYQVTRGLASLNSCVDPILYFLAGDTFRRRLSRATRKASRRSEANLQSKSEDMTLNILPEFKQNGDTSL
Property measured: pKi

Examples with answers:
compound_smiles=CC1(C)CN(c2ccccc2NC(=O)Nc2csc(Cl)n2)c2c(O)cc(F)c(-c3nc4cc(Cl)ccc4s3)c21 tgt="UniProtKB P47900" numeric_value=7.89
compound_smiles=CC1(C)CN(c2ccccc2NC(=O)Nc2ccc(OC(F)(F)F)cc2)c2c(O)c(F)cc(-c3nc4cc(Cl)ccc4s3)c21 tgt="UniProtKB P47900" numeric_value=7.28
compound_smiles=CC1(C)CN(c2ccccc2NC(=O)Nc2ccc(OC(F)(F)F)cc2)c2c(O)cc(F)c(-c3ccc(Cl)s3)c21 tgt="UniProtKB P47900" numeric_value=8.02

A = COc1cncc(-c2ccc(O)c3c2C(C)(C)CN3c2ccccc2NC(=O)Nc2ccc(OC(F)(F)F)cc2)c1
B = CC1(C)CN(c2ccccc2NC(=O)Nc2nc3ccc(Cl)nc3s2)c2c(O)cc(F)c(-c3nc4cc(Cl)ccc4s3)c21
C = CC1(C)CN(c2ccccc2NC(=O)Nc2nc3ccc(Cl)cc3s2)c2c(O)cc(F)c(-c3nc4cc(Cl)ccc4s3)c21
Sort these compounds on pKi so the largest reading comes first. I would appreciate it if you listed the labels in the requested order.
A, B, C
(A: 8.00, B: 7.41, C: 7.01)

Reference for the values: ChEMBL document CHEMBL5725427
